B1: H2-Kb / Ed39 (parent complex)
chain 1: GEQVEQRPPHLSVREGDSAVIICTYTDPNSYYFFWYKQEPGAGLQLLMKVFSSTEINEGQGFTVLLNKKDKQLSLNLTAAHPGDSAVYFCATMSNYNVLYFGSGTKLTVEP
chain 2: GALVYQYPRRTICKSGTSMRMECQAVGFQATSVAWYRQSPQKTFELIALSTVNSAIKYEQNFTQEKFPISHPNLSFSSMTVLNAYLEDRGLYLCGARDGSYEQYFGPGTRLTVL
chain 3: not shown
chain 4: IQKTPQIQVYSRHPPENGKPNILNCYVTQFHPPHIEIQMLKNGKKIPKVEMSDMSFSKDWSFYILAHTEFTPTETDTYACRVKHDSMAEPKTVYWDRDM
chain 5: SIINFEKL

Variants of: B1
Protocol Text: % of reporter cells activated (NFAT-GFP), raw; note: test concentration or dose not given here
Each entry gets Not met if its ratio to parent stays under 0.3, and Met if its ratio to parent is 0.3 or above.

# count of solved cases: 3
chain 5 E6C :: Not met
chain 5 F5A :: Met
chain 5 K7D :: Not met

Is it the case that chain 5 I2G has ratio to parent reaching or exceeding 0.3?
Met

Reported ratio to parent reaches at least 0.3 for chain 5 L8Q ?
Met

Confirm if ratio to parent reported for the variant chain 5 L8C is 0.3 or above.
Met

Check this variant for ratio to parent at or above 0.3: chain 5 N4L
Not met

Check this variant for ratio to parent at or above 0.3: chain 5 S1G
Not met

Threshold query (ratio to parent >= 0.3) on chain 5 N4G
Not met

Form field: ratio to parent at least 0.3? Entry: chain 5 F5V
Met

Check if ratio to parent >= 0.3 (inclusive). Item: chain 5 L8A
Met

Entry chain 5 I3F : is its ratio to parent no less than 0.3?
Not met

Kindly determine if ratio to parent recorded for chain 5 I3T is above or exactly 0.3.
Met

Textbook exercise: given the entry chain 5 E6W , state whether its ratio to parent is greater than or equal to 0.3.
Not met

Answer whether ratio to parent of chain 5 I3M is greater than or equal to 0.3.
Met

Test whether the variant chain 5 F5Y records ratio to parent of 0.3 or higher.
Met
